- Tested on: COLO 205
- experimental details: NCI tumour cell line growth inhibition, 48 h
Activity calls are given as the source filed them. No stated cut-off is given here; in the data, active = GI50 up to about 1.1 µM and inactive = higher.
Outcome codes: active, inactive

# compound, assigned label
rows = [
    ("N=C(N)N/N=C/c1cc(Cl)cc(Cl)c1O", "inactive"),
    ("CC(NC(=O)c1ccccc1)C(=O)N(Cc1ccccc1)Cc1ccccc1 (configuration not stated)", "inactive"),
    ("COc1ccc2c(c1OC)C(C=C(c1ccccc1)c1ccccc1)CN(C)C2 (configuration not stated)", "inactive"),
    ("O=C1CCC(c2ccccc2)=NN1c1nc2ccccc2s1", "inactive"),
    ("N=C1N(c2ccccc2)C(=O)C23CCCC2C13N1CCOCC1 (configuration not stated)", "inactive"),
    ("CCO[C@@H]1OC(=O)[C@](C)(C(C)=O)[C@@H]1C", "inactive"),
    ("O=C1OC(Cl)C(N=P(c2ccccc2)(c2ccccc2)c2ccccc2)=C1Cl (configuration not stated)", "inactive"),
    ("O=C(/C=C/c1cccs1)c1ccccc1Cl", "inactive"),
    ("O=c1c2cc(-c3ccccc3)cnc2sn1-c1ccc(Br)cc1", "inactive"),
    ("CC(=O)N1CC(=O)N2C(=O)/C(=C/c3ccc(Cl)cc3)N=C12", "inactive"),
    ("COc1cccc2c1C(=O)c1c(O)c3c(c(O)c1C2=O)C[C@@](O)(C(=O)CO)C[C@@H]3OC1CC(N(C)C)C(O)C(C)O1 (some centres not stated)", "active"),
    ("[N-]=[N+]=NC1(Cc2ccccc2)C(=O)c2cccc3c2N(CCC3)C1=O (configuration not stated)", "inactive"),
    ("O=C1C(=O)N(C2CCCCC2)C(=S)N1C1CCCCC1", "inactive"),
    ("CC1(S)CC2C(CC1Sc1ccccc1)C2(C)C (configuration not stated)", "inactive"),
    ("Cn1c(=O)c(C(c2ccccc2)c2c(O)c3ccccc3n(C)c2=O)c(O)c2ccccc21", "inactive"),
    ("O=C(O)c1ccccc1/N=N/c1c(O)c(S(=O)(=O)O)cc2cc(S(=O)(=O)O)ccc12", "inactive"),
    ("Clc1cccc(C2SCc3nc4ccccc4n32)c1Cl (configuration not stated)", "inactive"),
    ("Nc1nnc(O)c2c1c(I)cn2C1OC(CO)C(O)C1O (configuration not stated)", "active"),
    ("O=C(O)C1=C(O)C(C(=O)O)C23CCCCCCCCCCC12C(C(=O)O)C(O)=C3C(=O)O (configuration not stated)", "inactive"),
    ("CC(CS(=O)(=O)Cc1ccccc1)C(N)=O (configuration not stated)", "inactive"),
    ("C[n+]1cc2cc(O)c(O)cc2c2ccc3cc(O)c(O)cc3c21.c1ccncc1", "inactive"),
    ("NC1=C(N2CCCCC2)C(=O)NC2=N/C(=C\\c3ccccc3)C(=O)N21", "inactive"),
]
